# EXPERIMENTAL DETAILS: Liver Microsome Stability Assay (mouse)
# MEASUREMENT SETUP: mouse liver microsomes, with NADPH, 1.0 uM compound
Returns one of yes or no; yes when Liver Microsome Stability (Multiple Species): Mouse - % Remaining after 30 min w/NADPH is >= 8%.

Examples with answers:
Cc1ocnc1/C=C/c1csc(NC(=O)c2cccn2Cc2ccncc2)n1 | no
O=C(Nc1nc([C@H]2CCCN2c2ccc(O[C@H]3CCOC3)cc2)cs1)c1cccn1Cc1ccncc1 | yes
O=C(Nc1nc([C@H]2CCCN2c2ccc(OC3CSC3)cc2)cs1)c1cccn1Cc1ccnc(F)c1 | no
O=C(Nc1nc([C@H]2CCCN2c2ccccc2)cs1)c1cccn1Cc1cccc(F)c1 | yes
CC(=O)NCc1ccc(N2CCC[C@@H]2c2csc(NC(=O)c3cccn3CC3CCOCC3)n2)cc1 | no
COC(=O)Cn1cnc(/C=C/c2csc(NC(=O)c3cccn3Cc3ccnc(F)c3)n2)c1C | no
CC(=O)N1CCC(Oc2ccc(N3CCC[C@@H]3c3csc(NC(=O)c4cccn4Cc4ccnc(F)c4)n3)cc2F)CC1 | no
[2H]c1cc([2H])cc(N2CCC[C@@H]2c2csc(NC(=O)c3cccn3Cc3ccnc(F)c3)n2)c1 | yes

Query :: Textbook exercise: given the entry O=C1NC(/C=C/c2csc(NC(=O)c3cccn3Cc3ccncc3)n2)CO1 (stereo not shown) , state whether its Liver Microsome Stability (Multiple Species): Mouse - % Remaining after 30 min w/NADPH is greater than or equal to 8%.
Result :: no

Query :: Textbook exercise: given the entry O=C(Nc1nc([C@H]2CCCN2c2ccc(OC3CCN(C(=O)CF)CC3)cc2)cs1)c1cccn1Cc1ccnc(F)c1 , state whether its Liver Microsome Stability (Multiple Species): Mouse - % Remaining after 30 min w/NADPH is greater than or equal to 8%.
Result :: yes

Query :: Textbook exercise: given the entry CC(=O)Nc1ccc(N2CCC[C@@H]2c2csc(NC(=O)c3cccn3CC3CCOCC3)n2)cc1 , state whether its Liver Microsome Stability (Multiple Species): Mouse - % Remaining after 30 min w/NADPH is greater than or equal to 8%.
Result :: yes

Query :: Textbook exercise: given the entry Cc1cnc(/C=C/c2csc(NC(=O)c3cccn3Cc3ccncc3)n2)o1 , state whether its Liver Microsome Stability (Multiple Species): Mouse - % Remaining after 30 min w/NADPH is greater than or equal to 8%.
Result :: no

Query :: Textbook exercise: given the entry O=C(Nc1nc([C@H]2CCCN2c2ccc(O[C@@H]3CCCNC3)cc2)cs1)c1cccn1Cc1ccnc(F)c1 , state whether its Liver Microsome Stability (Multiple Species): Mouse - % Remaining after 30 min w/NADPH is greater than or equal to 8%.
Result :: yes

Cited source for all entries: patent US20230286973A1
